- Tested on: Staphylococcus epidermidis
- measurementDescription: Antibacterial activity against Staphylococcus epidermidis at 25 degree C measured after 48 hrs by crystal violet staining based microplate reader analysis
- Type: functional, organism-based
Examples of compounds with documented IC50 follow.
Just the number please, in µM, no unit attached.

Give reported IC50 value for NCCCCCCCCCCNc1ncc(-c2ccccc2)[nH]1
25.7

----------
- measurementDescription: Cytotoxicity against human PBMC cells assessed as survival rate at 400 uM measured after 72 hrs by trypan blue staining based assay relative to control
- Format: toxicity, cell-based
- runConditions: read-out: Survival
Lab note: cut-off is 20%. Strictly less in viability at 72 h, 400 µM is true. Exactly 20% or more is false.

Consider the following illustrative entries.
NCCCCCCCCCCCCNc1ncc(-c2ccccc2)[nH]1: true
NCCCCCCCCn1c(-c2ccc(Br)cc2)cnc1NC1CCCC1: false
COc1cc([C@@H]2c3cc4c(cc3[C@@H](O[C@@H]3O[C@@H]5CO[C@@H](C)O[C@H]5[C@H](O)[C@H]3O)[C@H]3COC(=O)[C@H]23)OCO4)cc(OC)c1O [ETOPOSIDE]: false

Given NCCCCCCCCNc1ncc(-c2ccc(Cl)cc2)[nH]1 , is recorded viability at 72 h, 400 µM strictly lower than 20%?
true

Given NCCCCCCNc1ncc(-c2ccccc2)[nH]1 , is recorded viability at 72 h, 400 µM strictly lower than 20%?
true

Given NCCCCCCCCNc1ncc(-c2ccc(F)cc2)[nH]1 , is recorded viability at 72 h, 400 µM strictly lower than 20%?
false

Given NCCCCCCCCNc1ncc(-c2ccc(Br)cc2)[nH]1 , is recorded viability at 72 h, 400 µM strictly lower than 20%?
false

----------
Examples of molecules with documented CC50 follow.
- Test system: NCI-H460
- measurementDescription: Cytotoxicity against human NCI-H460 cells assessed as inhibition of cell growth measured after 72 hrs by CellTiter 96 Aqueous One Solution Cell Proliferation Assay
- Type: functional
Just the number please, in µM, no unit attached.

Use the examples below as a reference point.
NCCCCCCCNc1ncc(-c2ccccc2)[nH]1: 68.8
NCCCCCCCCNc1ncc(-c2ccccc2)[nH]1: 30
NCCCCCCNc1ncc(-c2ccc(Br)cc2)[nH]1: 40
NCCCCCCNc1ncc(-c2ccc(Cl)cc2)[nH]1: 40

We next turn to a different molecule, shown below.
Give reported CC50 value for NCCCCCCCCNc1ncc(-c2ccc(Br)cc2)[nH]1
30

----------
Examples of compounds with documented fold change (FC) follow.
- measurementDescription: Genotoxicity in human CAPAN-1 cells assessed as fold change at 400 uM measured after 3 hrs by Western blot analysis
- Assay type: toxicity, cell-based
- runConditions: capan-1, 3 h
API doc: respond with a numeric literal and nothing else, no unit.

Give reported fold change (FC) value for NCCCCCCCCCCNc1ncc(-c2ccccc2)[nH]1
2

Give reported fold change (FC) value for NCCCCCCNc1ncc(-c2ccc(Cl)cc2)[nH]1
14.6

Give reported fold change (FC) value for NCCCCCCCCNc1ncc(-c2ccc(F)cc2)[nH]1
2.35

Give reported fold change (FC) value for NCCCCCCCCNc1ncc(-c2ccc(Cl)cc2)[nH]1
12.1

Give reported fold change (FC) value for NCCCCCCCCCCCNc1ncc(-c2ccccc2)[nH]1
1.75

Give reported fold change (FC) value for CCc1c2c(nc3ccc(O)cc13)-c1cc3c(c(=O)n1C2)COC(=O)[C@]3(O)CC [7-ETHYL-10-HYDROXYCAMPTOTHECIN]
9

Give reported fold change (FC) value for NCCCCCCCCCCCCNc1ncc(-c2ccccc2)[nH]1
1.95

Give reported fold change (FC) value for NCCCCCCNc1ncc(-c2ccc(Br)cc2)[nH]1
5.75

----------
- System: Staphylococcus epidermidis
- measurementDescription: Antibacterial activity against Staphylococcus epidermidis at 25 degree C measured after 48 hrs by crystal violet staining based microplate reader analysis
- Format: functional, organism-based
assayReadout: IC50 (µM)
Just the number please, in µM, no unit attached.

NCCCCCCNc1ncc(-c2ccc(Br)cc2)[nH]1: 85.2
NCCCCCCNc1ncc(-c2ccccc2)[nH]1: 164
NCCCCCCCCCCCNc1ncc(-c2ccccc2)[nH]1: 25
NCCCCCCCCCCCCNc1ncc(-c2ccccc2)[nH]1: 32
NCCCCCCCCNc1ncc(-c2ccccc2)[nH]1: 20.4
NCCCCCCNc1ncc(-c2ccc(Cl)cc2)[nH]1: 90.8

We next turn to a different compound, shown below.
Give reported IC50 value for NCCCCCCCCNc1ncc(-c2ccc(Cl)cc2)[nH]1
51.2
